Taken from paper PMC8213421.

Test system: CYP2B6 mRNA
Experiment: CYP induction in cultured human hepatocytes
Conditions: human, cultured human hepatocytes
readoutName: EC50 at 72 h (nM)
Give bare numbers, in nM.

[in] Quick check: EC50 at 72 h of N#Cc1ccnc(N2C(=O)CC[C@H]2C(=O)N(c2cncc(F)c2)[C@H](C(=O)NC2CC(F)(F)C2)c2ccccc2Cl)c1 [Ivosidenib] ?
[out] 2930

====

Target: UniProt Q4U2R8
Sequence (Q4U2R8 whole entry): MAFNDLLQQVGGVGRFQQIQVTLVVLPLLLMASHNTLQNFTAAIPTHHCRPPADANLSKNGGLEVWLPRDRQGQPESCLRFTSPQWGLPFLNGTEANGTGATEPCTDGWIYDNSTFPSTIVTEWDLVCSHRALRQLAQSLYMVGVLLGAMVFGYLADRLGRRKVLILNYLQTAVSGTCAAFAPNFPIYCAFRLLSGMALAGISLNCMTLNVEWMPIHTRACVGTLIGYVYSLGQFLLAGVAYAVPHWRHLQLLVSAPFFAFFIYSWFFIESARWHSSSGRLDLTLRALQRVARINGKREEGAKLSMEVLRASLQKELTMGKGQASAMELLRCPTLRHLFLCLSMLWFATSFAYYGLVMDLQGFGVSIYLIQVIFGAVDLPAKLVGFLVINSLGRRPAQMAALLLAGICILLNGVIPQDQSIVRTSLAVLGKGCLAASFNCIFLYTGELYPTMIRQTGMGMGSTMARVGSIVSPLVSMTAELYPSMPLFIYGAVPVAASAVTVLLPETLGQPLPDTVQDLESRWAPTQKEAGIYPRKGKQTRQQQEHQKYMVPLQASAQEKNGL
Assay: Transporter inhibition in transfected HEK293 cells
pIC50: −log10 of the molar value.
readoutName: pIC50

[in] Quick check: pIC50 of N#Cc1ccnc(N2C(=O)CC[C@H]2C(=O)N(c2cncc(F)c2)[C@H](C(=O)NC2CC(F)(F)C2)c2ccccc2Cl)c1 ?
[out] < 4.19

====

Tested on: CYP3A4 mRNA
Experiment: in vitro
Conditions: human
readoutName: pEC50
One number for each entry, as −log10 of the molar value.

[in] Quick check: pEC50 of N#Cc1ccnc(N2C(=O)CC[C@H]2C(=O)N(c2cncc(F)c2)[C@H](C(=O)NC2CC(F)(F)C2)c2ccccc2Cl)c1 [Ivosidenib] ?
[out] 4.90
